Each recorded value in this set is attributed to PubChem BioAssay (NCI).

Please go through the items and note down their TGI.
System: SF-295 CNS
assayComment: NCI tumour cell line growth inhibition, 48 h

The cases that follow already have their TGI on record.
# compound, TGI
rows = [
    ("N#CC(/C(=N\\NC(=O)c1ccncc1)C(=O)Nc1ccc([N+](=O)[O-])cc1[N+](=O)[O-])c1nc(-c2ccc(Br)cc2)cs1 (stereo unspecified)", "> 100 µM"),
    ("Cc1cc(N)ccc1N=Nc1ccc(S(=O)(=O)CCOS(=O)(=O)O)cc1", "9.21 µM"),
    ("COCc1c(CO)cnc(C)c1OC1OC(CO)C(O)C(O)C1O (stereo unspecified)", "> 100 µM"),
]

Provide each entry's TGI from the list below.
1. C[C@@H](N)C1CCC(C(=O)Nc2ccncc2)CC1 (stereo partly specified)
2. CC1=CC=C2c3ccccc3C=CN2C(=O)C1
3. C1CCC(OCc2nnn3c2CCC3)OC1 (stereo unspecified)

Resp:
1: > 100 µM; 2: > 100 µM; 3: > 100 µM
